- Test system: 496974-208-R-J2-PDC complex spheroids, growth % test/control
- assay.procedure: Anticancer human tumor 496974-208-R-J2-PDC patient-derived pancreatic carcinoma cell line growth inhibition [CLK]
- measurement.conditions: second compound 3.16 µM; first compound 1 µM; hits give low values
So basically every entry gets a class from its viability, T/C, ranges being bucket 1 (below 0.5%), bucket 2 (0.5% to below 2%), bucket 3 (2% or more)

Answered examples (2):
| compound | label.class |
| --- | --- |
| Nc1ccccc1NC(=O)c1ccc(CNC(=O)OCc2cccnc2)cc1 + CN1CCN(c2cc(C(=O)Nc3cc4cc(-c5cnn(C)c5)ccc4cn3)ccn2)CC1 | bucket 1 |
| COc1ccc([C@@H](O)c2cc(-c3ncnc4cc(N5CCOCC5)ccc34)c(F)cc2Cl)nn1 + CN1CCN(c2cc(C(=O)Nc3cc4cc(-c5cnn(C)c5)ccc4cn3)ccn2)CC1 | bucket 2 |

IN: Into which category would you place CCN1CCN(Cc2ccc(Nc3ncc(F)c(-c4cc(F)c5nc(C)n(C(C)C)c5c4)n3)nc2)CC1 + CNC(=O)c1ccc(Nc2nc(OC3CCCC3)c3c(-c4ccc5nc(C)oc5c4)c[nH]c3n2)c(OC)c1 ?
OUT: bucket 3

IN: Which bin should I file O=c1[nH]cc(F)c(=O)[nH]1 + CN1CCN(c2cc(C(=O)Nc3cc4cc(-c5cnn(C)c5)ccc4cn3)ccn2)CC1 under?
OUT: bucket 2

IN: Pick a category. Item: CC(=O)O[C@H]1C(=O)[C@@]2(C)[C@H]([C@H](OC(=O)c3ccccc3)[C@]3(O)C[C@H](OC(=O)[C@H](O)[C@@H](NC(=O)c4ccccc4)c4ccccc4)C(C)=C1C3(C)C)[C@]1(OC(C)=O)CO[C@@H]1C[C@@H]2O + CN1CCN(c2cc(C(=O)Nc3cc4cc(-c5cnn(C)c5)ccc4cn3)ccn2)CC1
OUT: bucket 2

IN: Categorize the following entry: CC1(C)CCC(CN2CCN(c3ccc(C(=O)NS(=O)(=O)c4ccc(NCC5CCOCC5)c([N+](=O)[O-])c4)c(Oc4cnc5[nH]ccc5c4)c3)CC2)=C(c2ccc(Cl)cc2)C1 + CN1CCN(c2cc(C(=O)Nc3cc4cc(-c5cnn(C)c5)ccc4cn3)ccn2)CC1
OUT: bucket 2

----------
- Test system: 496974-208-R-J2-PDC complex spheroids, growth % test/control
- assay.procedure: Anticancer human tumor 496974-208-R-J2-PDC cell line growth inhibition [CLK];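 also: spheroids exposed to the drugs for 7 days before readout; 100% = DMSO vehicle control wells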
- measurement.conditions: second compound 1 µM; first compound 0.316 µM; hits give low values
// map viability, T/C to label using low value = under 0.8%, medium value = from 0.8% up to 5%, high value = 5% and over

| compound | experimental.target | label.class |
| --- | --- | --- |
| CCCS(=O)(=O)Nc1ccc(F)c(C(=O)c2c[nH]c3ncc(-c4ccc(Cl)cc4)cc23)c1F + CNC(=O)c1ccc(Nc2nc(OC3CCCC3)c3c(-c4ccc5nc(C)oc5c4)c[nH]c3n2)c(OC)c1 | 496974-208-R-J2-PDC complex spheroids, growth % test/control | high value |
| COc1c(OCCCN2CCOCC2)ccc2c3n(c(=NC(=O)c4cnc(N)nc4)nc12)CCN3 + CNC(=O)c1ccc(Nc2nc(OC3CCCC3)c3c(-c4ccc5nc(C)oc5c4)c[nH]c3n2)c(OC)c1 | 496974-208-R-J2-PDC complex spheroids, growth % test/control | high value |
| CCc1c2c(nc3ccc(O)cc13)-c1cc3c(c(=O)n1C2)COC(=O)[C@]3(O)CC + CNC(=O)c1ccc(Nc2nc(OC3CCCC3)c3c(-c4ccc5nc(C)oc5c4)c[nH]c3n2)c(OC)c1 | 496974-208-R-J2-PDC complex spheroids, growth % test/control | high value |
| CCCS(=O)(=O)Nc1ccc(F)c(C(=O)c2c[nH]c3ncc(-c4ccc(Cl)cc4)cc23)c1F + CN1CCN(c2cc(C(=O)Nc3cc4cc(-c5cnn(C)c5)ccc4cn3)ccn2)CC1 | 496974-208-R-J2-PDC complex spheroids, growth % test/control | low value |
| C#Cc1c(F)ccc2cc(O)cc(-c3ncc4c(N5CC6CCC(C5)N6)nc(OCC56CCCN5CC(F)C6)nc4c3F)c12 (stereo unspecified) + CN1CCN(c2cc(C(=O)Nc3cc4cc(-c5cnn(C)c5)ccc4cn3)ccn2)CC1 | 496974-208-R-J2-PDC complex spheroids, growth % test/control | low value |

IN: The entry to classify is C=C(F)C(=O)N1CCN(c2nc(OCC3CCCN3C)nc3c2CCN(c2cccc4cccc(Cl)c24)C3)CC1CC#N (stereo unspecified) + CNC(=O)c1ccc(Nc2nc(OC3CCCC3)c3c(-c4ccc5nc(C)oc5c4)c[nH]c3n2)c(OC)c1 ; which class holds it?
OUT: high value

IN: Returns: class label. Input: CC1COCCN1c1cc(C2(S(C)(=N)=O)CC2)nc(-c2ccnc3[nH]ccc23)n1 (stereo unspecified) + CN1CCN(c2cc(C(=O)Nc3cc4cc(-c5cnn(C)c5)ccc4cn3)ccn2)CC1
OUT: medium value
